# test_target: m-cGAS (Mus musculus)
# Sequence (Q8C6L5 whole entry): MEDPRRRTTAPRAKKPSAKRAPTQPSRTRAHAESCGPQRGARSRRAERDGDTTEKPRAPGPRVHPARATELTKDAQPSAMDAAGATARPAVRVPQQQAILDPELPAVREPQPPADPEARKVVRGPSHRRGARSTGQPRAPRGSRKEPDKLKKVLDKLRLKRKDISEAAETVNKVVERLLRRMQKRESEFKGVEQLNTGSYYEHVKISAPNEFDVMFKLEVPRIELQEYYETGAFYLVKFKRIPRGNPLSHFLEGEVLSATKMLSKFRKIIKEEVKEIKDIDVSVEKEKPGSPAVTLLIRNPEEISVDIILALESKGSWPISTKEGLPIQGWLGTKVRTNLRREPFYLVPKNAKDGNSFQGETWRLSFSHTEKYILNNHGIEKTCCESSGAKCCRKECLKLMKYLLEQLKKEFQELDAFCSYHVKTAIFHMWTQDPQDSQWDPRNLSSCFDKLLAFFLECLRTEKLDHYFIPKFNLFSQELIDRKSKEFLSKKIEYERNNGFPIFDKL
# assay_method_text: Cell-free mouse cGAS enzyme inhibition assay (ATP depletion, Kinase-Glo Max)
# Format: biochemical
# assay_conditions: 1 h; read-out: m-cGAS, conc. 10 μM
readout_name: inhibition at 10 µM

Use these answered entries as a reference point.
{"columns": ["compound", "inhibition at 10 µM"],
 "data": [
  ["NCC(=O)N1CCc2c(sc3c(Cl)c(Cl)cc(-c4ccc(N)nc4)c23)C1 [Compound 75]", "75 to 100%"],
  ["CC(C)(N)C(=O)N1CCc2[nH]c3c(Cl)c(Cl)cc(-c4cc[nH]n4)c3c2C1 [Compound 20]", "0 to 24%"]
]}

Would you mind listing inhibition at 10 µM for each of the following compounds?
1. NCC(=O)N1CCc2c(sc3c(Cl)c(Cl)cc(-n4ccnc4)c23)C1 [Compound 97]
2. Cn1cnc(-c2cc(Cl)c(Cl)c3sc4c(c23)CCN(C(=O)CN)C4)c1 [Compound 93]
3. O=C(CO)N1CCc2sc3c(Cl)c(Cl)cc(-c4ccco4)c3c2C1 [Compound 52]
4. CN1c2c(Cl)c(Cl)cc(-c3cnn(C)c3)c2C2CN(C(=O)CN)CCC21 (stereo not drawn) [Compound 12]
5. CC(O)C(=O)N1CCc2c(c3c(-c4ccn(C)n4)cc(Cl)c(Cl)c3n2C)C1 (stereo not drawn) [Compound 4]
6. Cn1c2c(c3c(-c4ccc(O)nc4)cc(Cl)c(F)c31)CN(C(=O)CO)CC2 [Compound 2]
7. CNc1cnn(-c2cc(Cl)c(Cl)c3sc4c(c23)CCN(C(=O)CN)C4)c1 [Compound 95]
8. O=C(CO)N1CCc2oc3c(Cl)c(Cl)ccc3c2C1 [Compound 21]

Output:
50 to 74%
50 to 74%
0 to 24%
0 to 24%
0 to 24%
0 to 24%
50 to 74%
75 to 100%

Would you mind listing inhibition at 10 µM for each of the following compounds?
1. NCC(=O)N1CCc2c(sc3c(Cl)c(Cl)cc(-c4ccccn4)c23)C1 [Compound 86]
2. CN1c2c(Cl)c(Cl)cc(-c3cncnc3)c2C2CN(C(=O)CN)CCC21 (stereo not drawn) [Compound 9]
3. NCC(=O)N1CCc2sc3c(Cl)c(Cl)cc(-c4cncnc4)c3c2C1 [Compound 53]

Output:
25 to 49%
0 to 24%
75 to 100%

Would you mind listing inhibition at 10 µM for each of the following compounds?
1. O=C(CO)N1CCc2c(sc3c(Cl)c(Cl)cc(-c4cn[nH]c4)c23)C1 [Compound 63]
2. O=C(CO)N1CCc2sc3c(Cl)c(Cl)cc(-c4cc[nH]n4)c3c2C1 [Compound 50]
3. Cn1cc(-c2cc(Cl)c(Cl)c3nc4c(n23)CN(C(=O)CN)CC4)cn1 [Compound 101]
4. CC(C)(N)C(=O)N1CCc2sc3c(Cl)c(Cl)cc(-c4ccc(N)nc4)c3c2C1 [Compound 56]
5. O=C(CO)N1CCc2c(sc3c(Cl)c(Cl)cc(-c4cncnc4)c23)C1 [Compound 65]

Output:
1. 50 to 74%
2. 0 to 24%
3. 0 to 24%
4. 0 to 24%
5. 75 to 100%

---

# assay_method_text: Metabolic stability in human liver microsomes
# assay_conditions: human liver microsomes; 60 min, no co-factor (no NADPH)
Give measured Remaining (NCF = 60 min) for each item. Keep answers brief.
Express the reported value numerically, then name its unit.

{"columns": ["compound", "result"],
 "data": [
  ["Cn1c2c(c3ccc(Cl)c(F)c31)CN(C(=O)CO)CC2 [TDI-6570, reference compound]", "120.6%"],
  ["O=C(O)Cc1ccccc1Nc1c(Cl)cccc1Cl [Diclofenac, reference compound]", "114.8%"],
  ["Cn1cc(-c2cc(Cl)c(Cl)c3oc4c(c23)CN(C(=O)CN)CC4)cn1", "109.6%"]
]}

Task: Complete the entry with Remaining (NCF = 60 min) for C[C@]12CC[C@H]3[C@@H](CCC4=CC(=O)CC[C@@]43C)[C@@H]1CC[C@@H]2O [Testosterone, reference compound]
Output: 109.9%
